# procedure text: yeast display, Sf9 membrane polyspecificity reagent, FACS + sequencing; frameworks hold sequencing errors
observable: polyreactivity (PSR sort gate)

1. QVQIVESGGGLVQAGGSLRLSCAASGYIFSVYAMGWYRQAPGKERELVAAITFRTGRTYYADSVKWRFTISRDNAKNTVYLQMNSLKPEDTAVSYCAADGYWTTFYNLYGYWGQGTQVTVSS | high polyreactivity
2. QVQLVESGGGLVQAGGSLRLSCAASGSTFYAYTMGWYRQAPGKERELVAAISSGGGTYYADSVKGRFTISRDNAKNTVYLQMNSLKPEDTAVYYCAADPVGYYDPSDYWGQGTQVTVSS | low polyreactivity
3. QVQLVESGGGLVQAGGSLRVTCAASGRIFQRYVMGWYRQAPGKERELVAAITWSGGSTYADSVKGRFTISRDNAKNTVYLQMNSLKTEDTAVYYFAARVPYNYWGMYYLYDYWGQGTQVTVSS | high polyreactivity
4. QVQLVESGGGLVQAGGSLRLSCAASGSTFSYNAMGWYRQAPGKERELVAAIDRSVSTNYADSVKGRFTISRDNAKNTVYLQMNSLKTEDTAVYYCNARHPTDDIVIYDYWGQGTQVTVSS | low polyreactivity
5. QVQLVESGGGLVQAGGSLRLSCASSGSIFGSNAMGWYRQAPVKERELVAAITWSDGSTYYADSVKGRFTISRDNAKNTVYLQMNSLKPEDTAVYYCAVVWRGGYRWPYEYWGQGTQVTVSS | low polyreactivity
6. QVQLVESGGGLVQAGRSLRLSCAASGRTFGYNPMGWYRQAPGKEREFVAAISYSGTSTYYADSVKGRFTISRDNAKNTVYLQMNSLKPEDTAVYYCNAEALISWRYDYWGQGTQVTVSS | low polyreactivity
7. QVQLVESGGGLVQAGGSLRLSCAASGSIFSGYAMGWYRQAPGKERELVAAITWRAASTYYADSVKGRFTISRDNAKNTVYLQMNSLKPEDTAVYYCAKEGGPKPAFYYWGQGTQVTVSS | low polyreactivity
8. QVQLVESGGGLVQAGGSLRLSCAASGSIFGPYAMGWYRQAPGKERELVAAITKSGGSTYYADSVKGRFTISRDNAKNTVYLQMNSLKPEDTSVYYCAADYGHEYWGQGTQVTVSS | low polyreactivity
9. QVQLVESGVGLVQAGGSLRLSCASSGRTFPTYAMGWYRQAPGKERELVAAIRISGGRTYYADSVKGRFTISRDNAKNTVDLQMNSLKPEDTAVYYCAADTYASYESWGQGTQVSVSS | high polyreactivity
10. QVQLVESGGGLVQAGGSLRLSCAASGFTSWDIDMGCYRQAPGIEREMVAAITGGGTTNYADSVKGRFTISRDNAKNTVYLQMNSLKPEDTAVYYCAAKPWWYSGYDYWGQGTQVTVSS | low polyreactivity
11. QVQLVESRGGLDQAGGSLRLSCAASGSIFGFYAMGWYRQAPGKERELVAAISSDGGSTYYADSVKGRFTISRDNAKNTVYLQMNSLKPEDTAVYYCAAAHGSIFDSTYYEYYYWGQGTQVTVSS | low polyreactivity

###

# procedure text: yeast display, Sf9 membrane polyspecificity reagent, FACS + sequencing; frameworks hold sequencing errors
observable: polyreactivity (PSR sort gate)

1) QVQLVESGGGLVQAGGSLRLSCAASGRIFSGNAMGWYRQAPGKERELVAAISWGGGRTYYADSVKGRFTISRDNAKNTVYLQMNSLKPEDTAVFYCNTVRQRARFTKVDYWGQGTQVTVSS | high polyreactivity
2) QVQLVESGGGLVQAGGSLRLSCAASGSISVLNAMGWYRQAPGKERELVAAISRSGTRTYYADSVKGRFTLSRDNAKNTVYLQMNSLKPEDTAVYYCNALHRARLFGHYPYESWGQGTQVTVSS | high polyreactivity
3) QFQLVESGGGVVQAPGSLRLSSAASGSLFTVYAMGWYRQAPGKERELVAAISYGGGSTYYADSVKGRFTISRDTAKNTVYLQMNSLKQEDTAVYYCAADPYYSYGYYHAHGRDVGYWGQGTQVTVSS | low polyreactivity
4) QVQLVESGGGLVQAGGSLRLSCAASGSIFAPYAMGWYRQAPGKERELVAAISWSGDSTYYADSVKGRFTISRDNAKNTVYLQMNSLKPEDTAVSYCAAAGGFDYDYWGQATQVTVSS | low polyreactivity
5) QFQLVESGGGLVQAGGSLRLSCAASGGTFYVNDMGWYRQAPGKERELVATITYSGTSTYYADSVKGRFTISRDNAKNTVYLQMNSLKPEDTAVYYCATDVLLYFEPVNLDYWGQGTQVTVSS | low polyreactivity
6) QVQLVESGGGLVQAGGSLRLSCAASGRTFYSYAMGWYRQAPGKERELVAAISKRGTSTYYADSVKGRFTISRDNAKNTVYLQMNSLKPEDTAVYYCAAAYRGREVEYNSWGQGTQVTVSS | high polyreactivity
7) QIQLVESVGGLVQAGGSLRLSCDASGSTLKYTAMGWYRQAPRKESELVAAISTSGGNTYYADSVKGPFTISRDNAKNTVYLQMNSLKPEDTAVYYCAKVLGYYYYDYDSWGQGTQVTVSS | low polyreactivity
8) QVQLVESGGGLVQAGGSLRLSCAASGSIFLAYDMGWYRQAPGKERELVAGITSGGTTYYADSVKGRFTISRDNAKNTVYLQMNSLKPEDTAVYYCAVEPVFIVSEVLFDYWGQGTQVTVSS | low polyreactivity
9) QVQLVESGGGLVQAGGSLRLSCAASGITFKDYAMGWYRQATGKERELVAVISYSGGSTYYADSVKGRFTISRDNAKNTVYLQMNSLKPEDTAVYYCAARVGPEYDWGQGTQVTVSS | low polyreactivity
10) QVQLVESGGGLDQAGGSLRLSCAASGITLTNNAMGWYRQAPGKERELVAAITRSGGSTYYADSVKGRFTISRDNAKNTVYLQMNSLKPEDTAVYCAARWYSYSGSIRSYDYCGQGTQVTVSS | low polyreactivity
11) QVQLVESGGGLVQAGGSLRLSCAASGSTFNPYAMGWYRQAPGKERELVATITWRGTSTYYADSVKGRFTISRDNAKNTVYLQMNSLKPEDTPVYYCAARVRYKYDYWGQGTQVTVSS | high polyreactivity

Ref: the nanobody polyreactivity screen of Harvey et al. (2022)
